Avg. IC50, human hemolysis assay (complete human sera) reference
- MEASUREMENT TARGET: human C5 protein (human, UniProt P01031 19-673; P01031 678-1676)
- TEST METHOD NOTES: cell-based or functional assay
Positions of bridges follow the written chain, without caps; N, C: chain ends. Non-standard residues stand in square brackets, D forms with d. Primed or numbered codes have the meaning given here. mXylyl(5) = bridging moiety between the two residues (meta-xylyl); mXylyl″ = bridging moiety between the two marked residues; mXylyl = bridging moiety between residues (mXylyl(i,j)); Trp(7-aza) = N[C@@H](Cc1c[nH]c2ncccc12)C(=O)O; mXylyl(4) = bridging moiety between residues; Phg = N[C@H](C(=O)O)c1ccccc1; Tle = CC(C)(C)[C@H](N)C(=O)O; NMeS = CN[C@@H](CO)C(=O)O; Nva = CCC[C@H](N)C(=O)O
ASSAY METRIC: Avg. IC50, human hemolysis assay (complete human sera) (nM)

>  <BINDER>
Ac-C[Tle]ERFCDVYWEF-NH2 (linker 1-6 via mXylyl″) [R3146]

>  <COMPARISON OPERATOR>
=

>  <RECORDED VALUE>
107

$$$$
>  <BINDER>
Ac-[Nva]C[Phg]T[Trp(7-aza)]EY[NMeS]HC[Nva]P-NH2 (linker 2-10 via mXylyl) [R3011]

>  <COMPARISON OPERATOR>
=

>  <RECORDED VALUE>
112

$$$$
>  <BINDER>
Ac-VC[Phg]T[Trp(7-aza)]EY[NMeS]AC[Nva]-NH2 (linker 2-10 via mXylyl(5)) [R3083]

>  <COMPARISON OPERATOR>
>

>  <RECORDED VALUE>
25000

$$$$
>  <BINDER>
Ac-CVERFCWEF-NH2 (linker 1-6 via mXylyl(4)) [R3125]

>  <COMPARISON OPERATOR>
>

>  <RECORDED VALUE>
100000

$$$$
>  <BINDER>
Ac-[Nva]CYEN[Tle]Y[Trp(7-aza)]ECP[Phg][Nva]-NH2 (linker 2-10 via mXylyl) [R3018]

>  <COMPARISON OPERATOR>
>

>  <RECORDED VALUE>
5730

$$$$
